- Tested on: DFO2036
- Assay Comment: qHTS profiling for inhibitors of Plasmodium falciparum proliferation (AID 504749); note: nearly all actives have a fitted effect of over 60% in size; note: potency is the fitted concentration of half-maximal effect
- Test Context: P. falciparum in erythrocytes, SYBR Green DNA, 72 h; series mostly up to 28.7 µM
- Procedure: NIH National Institute of Allergy and Infectious Diseases [NIAID] NIH Chemical Genomics Center [NCGC] […] Because mature erythrocytes lack DNA, only Plasmodium-derived DNA is detected. NCGC Assay Protocol Summary: The SYBR Green viability assay was adapted from a method described previously (Plouffe et al., 2008). […] The following morning, fluorescence intensity at 485(14) nm excitation and 535(25) nm emission wavelengths was measured on an EnVision (Perkin Elmer) plate reader. […]
Inconclusive results are not listed. Active and inactive are the calls of the source. Calls come from the whole dose curve; as a rule, active = well fitted inhibition curve with a large enough effect; inconclusive = small, poorly fitted or top-dose-only effect; inactive = flat fitted curve, though single readings scatter.
Property: Potency

Illustrative cases are given below, each with its answer.
>>> assay_value("CCN(CC)CCCC(C)Nc1cc(/C=C/c2ccccc2Cl)nc2cc(Cl)ccc12 (stereo not drawn)")
"1000 nM (active)"
>>> assay_value("Cc1c(Cl)cccc1Nc1ncccc1C(=O)O")
"inactive"
>>> assay_value("O=C(O)/C=C/C(=O)Nc1ccc(S(=O)(=O)Nc2nccs2)cc1")
"inactive"
>>> assay_value("C=CC[C@@H]1/C=C(\\C)C[C@H](C)C[C@H](OC)[C@H]2O[C@@](O)(C(=O)C(=O)N3CCCC[C@H]3C(=O)O[C@H](/C(C)=C/[C@@H]3CC[C@@H](O)[C@H](OC)C3)[C@H](C)[C@@H](O)CC1=O)[C@H](C)C[C@@H]2OC")
"1000 nM (active)"
>>> assay_value("CC(=O)[C@H]1CC[C@H]2[C@@H]3C=CC4=CC(=O)CC[C@@]4(C)[C@H]3CC[C@]12C")
"inactive"

Note Potency for the compound shown: CCCOC(=O)c1ccccc1O inactive

Note Potency for the compound shown: CNC(=O)C[C@@H](N)C(=O)N[C@@H](C(=O)N[C@@H]1C(=O)N2[C@@H]1SC(C)(C)[C@@H]2C(=O)O)c1ccc(O)cc1 inactive

Note Potency for the compound shown: FC(F)(F)C(F)(F)C(F)(F)C(F)(F)C(F)(F)C(F)(F)F inactive
